# System: LOC_OS01G67340-cb003;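 further: purified Escherichia coli-expressed rice kinase domain construct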
# protocol.description: thermal shift delta Tm vs DMSO control; higher = stronger stabilization (binding)
# condition: 12.5 µM; protein concentration 2 µM
Structures can show the parent of a compound that is named as a salt.
Listed next: entries and their corresponding thermal shift delta Tm.
Give just the numeric value; °C need not be written.

Solved entries:
COc1cc(OC)cc(-c2cc3cnc(N)nc3nc2NC(=O)NC(C)(C)C)c1	-0.11
C=CC(=O)Nc1cccc(Nc2nc(Nc3ccc(N4CCN(C(C)=O)CC4)cc3OC)ncc2C(F)(F)F)c1	0.52
CCN(CC)CCNC(=O)c1c(C)[nH]c(/C=C2\C(=O)Nc3ccc(F)cc32)c1C	4.15
COCC(=O)NC/C=C/c1ccc2ncnc(Nc3ccc(Oc4ccc(C)nc4)c(C)c3)c2c1	-0.68
CCNC(=O)C#Cc1ccc2c(C(=Nc3ccc(CN(C)C)cc3)c3ccccc3)c(O)[nH]c2c1	1.01

Consider the compound `Cn1cc(-c2cnn3c(N)c(Br)c([C@@H]4CCCNC4)nc23)cn1` and give its measured thermal shift delta Tm.
0.29

Would you kindly repeat that for COc1cc2/c(=N/c3ccc(Br)cc3F)nc[nH]c2cc1OCC1CCN(C)CC1 [Vandetanib (ZD6474)] ?
1.64

Another compound to look at: `COc1cccc2cc(-c3nc([C@H]4CC[C@H](C(=O)O)CC4)n4ncnc(N)c34)[nH]c12`
1.05

Now the compound CC#CC(=O)N1CC[C@@H](n2c(=O)n(-c3ccc(Oc4ccccc4)cc3)c3c(N)ncnc32)C1 [ONO-4059 (GS-4059) hydrochloride]
0.27

For `Cc1cc2c(F)c(Oc3ncnn4cc(OC[C@@H](C)O)c(C)c34)ccc2[nH]1` then?
-0.11

Now consider `COc1cc2ncnc(Nc3cccc(Cl)c3F)c2cc1OC(=O)N1CCN(C)C[C@H]1C` and answer again.
0.62

And the next one, `CO[C@H]1C[C@@H]2CC[C@@H](C)[C@@](O)(O2)C(=O)C(=O)N2CCCC[C@H]2C(=O)O[C@H]([C@H](C)C[C@@H]2CC[C@H](n3cnnn3)[C@H](OC)C2)CC(=O)[C@H](C)/C=C(\C)[C@@H](O)[C@@H](OC)C(=O)[C@H](C)C[C@H](C)/C=C/C=C/C=C/1C` ?
0.45

Would you kindly repeat that for `COc1ccc(CC(=O)Nc2nc3c(s2)CCc2ccccc2-3)cc1OC` ?
1.18

Next record, please: `Cc1ncc(CO)c(CO)c1O`
0.08

Repeat with `C=CC(=O)Nc1cccc(Nc2nc(Nc3ccc(Oc4ccnc(C(=O)NC)c4)cc3)ncc2F)c1`
0.92

Same for `CC[C@@H]1C(=O)N(C)c2cnc(Nc3ccc(C(=O)NC4CCN(C)CC4)cc3OC)nc2N1C1CCCC1`
-0.4
